target-of-assay: pooled human IgG
measurement-name: Enzyme Activity Endpoint Assay (purified): Fc (ng/µL)
One number for each entry, in ng/µL.

Some solved cases for reference:
protein	observed-measurement
PRT-241 (protein) MVTSVWTKGVTPPANFTQGEDVFHAPYVANQGWYDITKTFNGKDDLLCGAATAGNMLHWWFDQNKDQIKRYLEEHPEKQKINFNGEQMFDVKEAIDTKNHQLDSKLFEYFKEKAFPNLSTKHLGVFPDHVIDMFINGYRLSLLNHGPTPVKEGSKDPRGGIFDAVFTRGDQSKLLTSRHDFKEKNLKEISDLIKKELTEGKALGLSHTYANVRINHVINLWGADFDSNGNLKAIYVTDSDSNASIGMKKYFVGVNSSGKVAISAKEIKEDNIGAQVLGLFTLSTGQDSWNQTN	406
PRT-237 (protein) MEVVEVWPYGQNPNGKTEILSQTEDSESLQRLRDIEDFQAEKKMQNVVYTKWLDGVDVKDHDFRKIVDGNIEYYATPLLNGRGFYDINKDFNRDSDKCAAAVAANMFHYWLDINRDNVDRFLRQNPEKHGIIELPDGQLKLSDFLNTYESDHGYRDKSKLFDFISNNFNGPVWTDKLLDNYINGYAYNYKYGRTIEDPTKNTSKINFFKEVFNEKILTNNHSIRNQNEFSVLLSEALYTGKAIGLSYGPAGLRHSLGHIISVWGADLDADGNVVAIYVTDSDDKKLTIGDERVGLKRYKISTDDENRLRLTAYEETHNTGGQIRGLWTLDTGKYAWADYFDKTEQTGTDQAEQLEHHHHHH	415

Would you mind listing Enzyme Activity Endpoint Assay (purified): Fc for each of the following proteins?
1. PRT-234 (protein) MEVVEVWPYGQNPNGKTEILSQTEDSESLQRLRDIEDFQAEKKMQNVVYTKWLDGVDVKDHDFRKIVDGNIAYYATPLLNGRGFYDINKDFNRDSDKCAAAVAANMFHYWLDINRDNVDRFLRQNPEKHGIIELPDGQLKLSDFLNTYESDDGYRDKSKLFDFISNNFNGPVWTDKLLDNYINGYAYNYKYGRTIEDPTKNTSKINFFKEVFNEKILTNNHSIRNQNEFSVLLSEALYTGKAIGLSYGPAGLRHSLGHIISVWGADLDADGNVVAIYVTDSDDKKLTIGDERVGLKRYKISTDDENRLRLTAYEETHNTGGQIRGLWTLDTGKYAWADYFDKTEQTGTDQAEQLEHHHHHH
2. PRT-297 (protein) MVTSVWTKGVTPPADFTQGEDVFHAPYDANQGWYDITKEFNGKDDLLCGAATAGNMLHWWFDQNKEYIEAYLKKHPEKQKIMFGDQELLDVRKAINTKGSQKNSELFNYFRDKAFPNLSARRLGVMPDLVLDMFINGYYLNVTKTQTTDVNRTYQEKDKRGGIFDAVFTRGDQSKLLTSRHDFKEKGLKEISDLIKQELTEGKALGLSHTYANVRIGHVINLWGADFDSDGNLKAIYVTDSDSNASIGMKKYGVGVNSAGKVAISAKEIKEDNIGAQVLGLFTLSTGQDIWNQTN

[376, 345]
